Can you tell me pIC50 for the items I'm about to list?
test system: human gastric cancer cells-803 (MGC-803); assay: MTT antiproliferative assay, MGC-803; type: cell-based; settings: MTT, read-out: Effect against cell viability (IC50), MGC-803
Note: pIC50 values are expressed as the negative base-10 logarithm of concentration in M.

Which pIC50 is listed for "Cc1ccc2nc3ccccc3c(NC(=S)NNC(=O)c3ccc([N+](=O)[O-])cc3)c2c1" ?
4.65

Also "Cc1ccc2[nH]c3ccccc3c(=NC(=S)NNC(=O)c3ccncc3)c2c1" ?
4.95

Also "COc1ccc(C(=O)NNC(=S)Nc2c3ccccc3nc3ccc(C)cc23)cc1" ?
4.95

Also "Cc1ccc2nc3ccccc3c(NC(=S)NNC(=O)c3ccccc3)c2c1" ?
4.87

Also "COc1ccc2nc3ccccc3c(NC(=S)NNC(=O)c3ccccc3)c2c1" ?
4.84

Also "COc1ccc2nc3ccccc3c(NC(=S)NNC(=O)c3ccc([N+](=O)[O-])cc3)c2c1" ?
4.46

Also "COc1ccc(-n2c(-c3c4ccccc4nc4ccc(C)cc34)n[nH]c2=S)cc1" ?
4.96

Also CC1=CC2C(=Nc3nnc(-c4ccccc4)s3)c3ccccc3NC2C=C1 (centres unmarked) ?
5.00

Also COC1=CC2C(=Nc3nnc(-c4ccc(Cl)cc4)s3)c3ccccc3NC2C=C1 (centres unmarked) ?
5.05

Also "COc1ccc2[nH]c3ccccc3c(=NC(=S)NNC(=O)c3ccncc3)c2c1" ?
4.96

Also "Cc1ccc2nc3ccccc3c(NC(=S)NNC(=O)c3ccc(Cl)cc3)c2c1" ?
4.79

Also "COc1ccc(C(=O)NNC(=S)Nc2c3ccccc3nc3ccc(OC)cc23)cc1" ?
4.68

Also N.N.[Cl][Pt][Cl] [cis-platinum, reference compound] ?
4.80

Also "COc1ccc2[nH]c3ccccc3c(=NC(=S)NNC(=O)c3ccc(Cl)cc3)c2c1" ?
4.59

* * *

measuredParameter: melting point

Which melting point is listed for "Cc1ccc2nc3ccccc3c(-n3c(-c4ccccc4)n[nH]c3=S)c2c1" ?
292 to 293 °C

Also "COc1ccc2nc3ccccc3c(-n3c(-c4ccncc4)n[nH]c3=S)c2c1" ?
272 to 273 °C

Also "COc1ccc2nc3ccccc3c(-n3c(-c4ccccc4)n[nH]c3=S)c2c1" ?
259 to 261 °C

Also COC1=CC2C(=Nc3nnc(-c4ccccc4)s3)c3ccccc3NC2C=C1 (stereo not drawn) ?
263 to 265 °C

Also "Cc1ccc2nc3ccccc3c(-n3c(-c4ccc([N+](=O)[O-])cc4)n[nH]c3=S)c2c1" ?
245 to 247 °C

Also COC1=CC2C(=Nc3nnc(-c4ccc([N+](=O)[O-])cc4)s3)c3ccccc3NC2C=C1 (stereo not drawn) ?
258 to 260 °C

Also "COc1ccc(-c2n[nH]c(=S)n2-c2c3ccccc3nc3ccc(OC)cc23)cc1" ?
262 to 267 °C

Also CC1=CC2C(=Nc3nnc(-c4ccncc4)s3)c3ccccc3NC2C=C1 (stereo not drawn) ?
276 to 278 °C

Also "Cc1ccc2nc3ccccc3c(-n3c(-c4ccncc4)n[nH]c3=S)c2c1" ?
264 to 268 °C

Also COC1=CC2C(=Nc3nnc(-c4ccc(OC)cc4)s3)c3ccccc3NC2C=C1 (stereo not drawn) ?
230 to 232 °C

Also CC1=CC2C(=Nc3nnc(-c4ccccc4)s3)c3ccccc3NC2C=C1 (stereo not drawn) ?
294 to 296 °C

Also CC1=CC2C(=Nc3nnc(-c4ccc(Cl)cc4)s3)c3ccccc3NC2C=C1 (stereo not drawn) ?
258 to 260 °C
